System: Rattus norvegicus
Experiment: Hypolipidemic effects(plasma TG) in male rats at 25 mg/kg
Type: functional
Entries and their Change values follow.

Smiles string: CC(C)(CCCCOc1ccc(OCCCCC(C)(C)C(=O)O)cc1)C(=O)O
Unit: %
Change: 0

Smiles string: CC(C)(CCCOc1ccc(OCCCC(C)(C)C(=O)O)c(Cl)c1)C(=O)O
Unit: %
Change: -31

Smiles string: CC(C)(CCCOc1ccc(OCCCC(C)(C)C(=O)O)c(-c2ccccc2)c1)C(=O)O
Unit: %
Change: 82

Smiles string: CC(C)(CCCOc1ccc(SCCCC(C)(C)C(=O)O)cc1)C(=O)O
Unit: %
Change: 37

Smiles string: COC(=O)C(C)(C)CCCOc1ccc(OCCCC(C)(C)C(=O)OC)c(C)c1
Unit: %
Change: 0

These entries and their values trace back to ChEMBL document CHEMBL1122242.
